Target: C5a Receptor (Homo sapiens)
Construct: 2.5-25 μg/mL of purified PMNL membrane fragments; from tissue; host or cells: polymorphonuclear leukocyte (PMNL) membrane fragments
Sequence (P21730 whole entry, the tested form may be a part): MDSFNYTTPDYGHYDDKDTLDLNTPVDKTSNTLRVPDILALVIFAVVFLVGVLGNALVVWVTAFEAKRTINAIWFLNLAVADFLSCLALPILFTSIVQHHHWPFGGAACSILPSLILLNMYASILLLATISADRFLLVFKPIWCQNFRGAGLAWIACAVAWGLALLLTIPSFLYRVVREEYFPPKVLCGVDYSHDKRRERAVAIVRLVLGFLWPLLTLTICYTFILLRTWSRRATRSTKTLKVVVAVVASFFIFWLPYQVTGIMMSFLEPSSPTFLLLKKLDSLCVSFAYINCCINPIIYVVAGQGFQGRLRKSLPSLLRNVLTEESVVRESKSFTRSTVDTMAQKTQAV
Experiment: Anaphylatoxin receptor binding Ki determination: inhibition of 125I-C5a binding to PMNL membrane fragments
Conditions: 0.03-1 nM 125I-C5a, 2.5-25 μg/mL purified PMNL membrane fragments, filtration; read-out: In vitro C5a Receptor Binding Potency Ki
Numbered stars: 1 amine (or outer) side, 2 acyl side, 3 side chain; on linkers, the order of the positions; unused ones are H or OH. Square brackets hold non-standard residues; d marks the D form. Peptide text beside a SMILES is read from it. * marks the point of attachment. X3 = CC(C)C[C@H](NC[C@H](C)N*)C(=O)N[C@H](C)C(=O)N[C@@H](CCCNC(=N)N)C(=O)O; X1 = O=C([C@@H](N[*:1])C(O)c1ccccc1)[*:2]; Cha = N[C@@H](CC1CCCCC1)C(=O)O; dNMeA = CN[C@H](C)C(=O)O
# log10 of Ki annotations
Plainly stated, the numbers are log10 of Ki given in nM.

Below, each entry is followed by its recorded log10 of Ki result.
MOLECULE | log10 of Ki
CC(C)C[C@H](NC(=O)[C@H](CC1CCCCC1)NC(=O)[C@H](CC1CCCCC1)NC(=O)[C@H](C)NC(=O)[C@H](CCCCN)NC(=O)[C@@H](N)Cc1ccccc1)C(=O)N(C)[C@H](C)C(=O)N[C@@H](CCCNC(=N)N)C(=O)O [Example 229] (H-FKA[Cha][Cha]L[dNMeA]R-OH) | 1.52
CC[C@H](C)[C@H](N)C(=O)N[C@@H](CO)C(=O)N[C@@H](Cc1ccccc1)C(=O)N[C@@H](CCCCN)C(=O)N[C@@H](CC(=O)O)C(=O)N[C@@H](CC1CCCCC1)C(=O)N[C@@H](CC1CCCCC1)C(=O)N[C@@H](CC(C)C)C(=O)N[C@H](C)C(=O)N[C@@H](CCCNC(=N)N)C(=O)O [Example 111] (H-ISFKD[Cha][Cha]L[dA]R-OH) | 2.81

Query: Entry CC(C)C[C@H](NC[C@H](C)NC(=O)[C@H](CC1CCCCC1)NC(=O)[C@H](C)NC(=O)[C@H](CCCCN)NC(=O)[C@@H](N)Cc1ccccc1)C(=O)N[C@H](C)C(=O)N[C@@H](CCCNC(=N)N)C(=O)O [Example 409] (H-FKA[Cha]-X3) : reported log10 of Ki = ?
Result: 3.58

Query: Form field: reported log10 of Ki of CC(C)C[C@H](NC(=O)[C@H](CC1CCCCC1)NC(=O)[C@H](CC1CCCCC1)NC(=O)[C@H](C)NC(=O)[C@H](CCCCN)NC(=O)[C@@H](N)Cc1ccccc1)C(=O)N[C@H](C)C(=O)NCC(=O)N[C@@H](CCCNC(=N)N)C(=O)O [Example 213] (H-FKA[Cha][Cha]L[dA]GR-OH)
Result: 2.52

Query: # input molecule: C[C@H](NC(=O)[C@H](CCCCN)NC(=O)[C@@H](N)Cc1ccccc1)C(=O)N[C@@H](CC1CCCCC1)C(=O)N[C@@H](CC1CCCCC1)C(=O)N[C@H](C(=O)N[C@H](C)C(=O)N[C@@H](CCCNC(=N)N)C(=O)O)[C@@H](C)O [Example 131] (H-FKA[Cha][Cha]T[dA]R-OH) ; wanted: its log10 of Ki
Result: 2.23

Query: Looking for the measured log10 of Ki of CC(=O)N[C@@H](Cc1c[nH]cn1)C(=O)N[C@@H](CCCCN)C(=O)N[C@@H](CC(=O)O)C(=O)N[C@@H](CC1CCCCC1)C(=O)N[C@@H](Cc1c[nH]cn1)C(=O)N[C@@H](CC(C)C)C(=O)N[C@H](C)C(=O)N[C@@H](CCCNC(=N)N)C(=O)O [Example 23] (Ac-HKD[Cha]HL[dA]R-OH) , can you help?
Result: 3.38

Query: What value of measured log10 of Ki is listed for CC(C)C[C@H](NC(=O)[C@H](C)NC(=O)[C@@H](NC(=O)[C@H](C)NC(=O)[C@H](CCCCN)NC(=O)[C@@H](N)Cc1ccccc1)C(O)c1ccccc1)C(=O)N[C@H](C)C(=O)N[C@@H](CCCNC(=N)N)C(=O)O (some centres unmarked) [Example 117] (H-FKA[X1]AL[dA]R-OH) ?
Result: 2.74

Query: Recorded log10 of Ki for CSCC[C@H](NC(=O)[C@H](CC(=O)O)NC(=O)[C@H](CCCCN)NC(=O)[C@@H](N)Cc1ccccc1)C(=O)N[C@@H](CCCNC(=N)N)C(=O)N[C@@H](CC(C)C)C(=O)NCC(=O)N[C@@H](CCCNC(=N)N)C(=O)O [Example 424] (H-FKDMRLGR-OH) , please?
Result: 2.68
